- Test system: L-type calcium channels
- Assay type: cell-based, mouse
- Test Settings: AtT20/D16v-F2 cells, ω-conotoxin 1 μM, 100 mM KCl depolarization
Counter-ions that a name gives are not always drawn.
Exercise: state measured pIC50 for each of the compounds provided.
One number for each entry, as −log10 of the molar value.

Give me pIC50 for each of these compounds, listed below.
1. COc1cc(CCN(CC(=O)NCC(C)(C)N)Cc2ccccc2)ccc1OCc1cccc(F)c1 [Example 42, hydrochloride]
2. COc1cc(CCN(CC(=O)NCCN(C)C)Cc2ccccc2)ccc1OCc1cccc(F)c1 [Example 43, hydrochloride]
3. COc1cc(CCN(CC(=O)N2CCCC2)Cc2ccccc2)ccc1OCc1cccc(F)c1 [Example 40, hydrochloride]
4. CNC(=O)CN(CCc1ccc(OCc2cccc(F)c2)c(OC)c1)CC1CC1 [Example 8, hydrochloride]

1: 5.62; 2: 5.92; 3: 5.80; 4: 5.42

Give me pIC50 for each of these compounds, listed below.
1. CN(C)CCNC(=O)CN(CCc1cccc(OCc2cccc(F)c2)c1)Cc1ccco1 [Example 71, dihydrochloride]
2. COc1cc(CCNC(C(=O)N2CCOCC2)c2ccccc2)ccc1OCc1cccc(F)c1 (stereo not shown) [Example 33, hydrochloride]
3. CNC(=O)CN(CCc1ccc(OCc2cccc(F)c2)c(OC)c1)CC(C)C [Example 2, hydrochloride]
4. CC(C)(N)CNC(=O)CN(CCc1cccc(OCc2cccc(F)c2)c1)Cc1ccco1 [Example 72, dihydrochloride]
5. C[C@H](NCc1ccc(OCc2ccccc2F)cc1)C(N)=O [ralfinamide, reference compound]

[5.47, 5.15, 5.51, 5.54, 4.59]

Give me pIC50 for each of these compounds, listed below.
1. CCNC(=O)CN(CCc1ccc(OCc2cccc(F)c2)c(OC)c1)CC1CC1 [Example 47, hydrochloride]
2. COc1cc(CCN(CC(=O)N(C)C)Cc2ccccc2)ccc1OCc1cccc(F)c1 [Example 20, hydrochloride]
3. CNC(=O)[C@H](CC(C)C)NCCc1ccc(OCc2cccc(F)c2)c(OC)c1 [Example 31]
4. CNC(=O)CN(CCc1ccc(OCc2cccc(F)c2)c(OC)c1)Cc1ccoc1 [Example 10, hydrochloride]

5.74
5.34
6.00
5.77

// data source = patent US8129427B2
